Reported cmax values follow for various molecules
Experiment: Pharmacokinetic study after a single oral administration to mice
Format: in vivo
Conditions: female Balb/c mice, single oral 100 mg/kg in 0.5% methylcellulose; plasma; 100 mg/kg
Excerpt: The aim of the study was to evaluate pharmacokinetic (PK) properties of five different batches including anhydrates and monohydrates of the crystal form A of compound 1a (cf. Table 1 in Example 5) after a single oral administration to mice. Three of the forms were anhydrous and two were monohydrates. […] For PK evaluation, summary statistics and plotting of concentration/time curves, all values below the lower limit of quantification (LLOQ) were set to zero.
# include the unit after the value

Some solved entries appear below for comparison.
# MOLECULE, MEASUREMENT TYPE, VAL
rows = [
    ("CCCCCCCCCCCCCCCCN(C)CC(O)CS(=O)(=O)O (stereo not shown) [KP-0726.11]", "cmax", "759 ng/mL"),
    ("CCCCCCCCCCCCCCCCN(C)CC(O)CS(=O)(=O)O (stereo not shown) [2208-CF/1]", "cmax", "1003 ng/mL"),
    ("CCCCCCCCCCCCCCCCN(C)CC(O)CS(=O)(=O)O (stereo not shown) [KP-0722.11]", "cmax", "571 ng/mL"),
]

Now take the following molecule into account.
-- ask Entry CCCCCCCCCCCCCCCCN(C)CC(O)CS(=O)(=O)O (stereo not shown) [TN-0382.11] : reported cmax = ?
-- reply 627 ng/mL
